Would you kindly list abundance fitness for each of these variants?
B1: Zinc finger homeobox protein 3, residues 2147 to 2202; numbered along this chain, Q15911 (parent)
chain: RPRTRITDDQLRVLRQYFDINNSPSEEQIKEMADKSGLPQKVIKHWFRNTLFKERQ

# Variants of: B1
# Test Name: abundance fitness (aPCA) (normalised: wild type 0, dead -1); higher = more abundant; growth selection in yeast, the domain comes from the species named
# Condition Details: Homo sapiens
Answers are plain numbers.

L11F | -0.216

Provide the reported abundance fitness of each entry below, same order.
1. K41G
2. R12W
3. L11S
4. R5V

0.108
-0.456
-0.161
0.129

// provenance: the Human Domainome abundance scans (Beltran et al. 2025)
